Sourced from ChEMBL document CHEMBL4028801

- system.under.test: ATP-binding cassette sub-family C member 4 (Homo sapiens, UniProt O15439)
- Sequence (O15439 whole entry): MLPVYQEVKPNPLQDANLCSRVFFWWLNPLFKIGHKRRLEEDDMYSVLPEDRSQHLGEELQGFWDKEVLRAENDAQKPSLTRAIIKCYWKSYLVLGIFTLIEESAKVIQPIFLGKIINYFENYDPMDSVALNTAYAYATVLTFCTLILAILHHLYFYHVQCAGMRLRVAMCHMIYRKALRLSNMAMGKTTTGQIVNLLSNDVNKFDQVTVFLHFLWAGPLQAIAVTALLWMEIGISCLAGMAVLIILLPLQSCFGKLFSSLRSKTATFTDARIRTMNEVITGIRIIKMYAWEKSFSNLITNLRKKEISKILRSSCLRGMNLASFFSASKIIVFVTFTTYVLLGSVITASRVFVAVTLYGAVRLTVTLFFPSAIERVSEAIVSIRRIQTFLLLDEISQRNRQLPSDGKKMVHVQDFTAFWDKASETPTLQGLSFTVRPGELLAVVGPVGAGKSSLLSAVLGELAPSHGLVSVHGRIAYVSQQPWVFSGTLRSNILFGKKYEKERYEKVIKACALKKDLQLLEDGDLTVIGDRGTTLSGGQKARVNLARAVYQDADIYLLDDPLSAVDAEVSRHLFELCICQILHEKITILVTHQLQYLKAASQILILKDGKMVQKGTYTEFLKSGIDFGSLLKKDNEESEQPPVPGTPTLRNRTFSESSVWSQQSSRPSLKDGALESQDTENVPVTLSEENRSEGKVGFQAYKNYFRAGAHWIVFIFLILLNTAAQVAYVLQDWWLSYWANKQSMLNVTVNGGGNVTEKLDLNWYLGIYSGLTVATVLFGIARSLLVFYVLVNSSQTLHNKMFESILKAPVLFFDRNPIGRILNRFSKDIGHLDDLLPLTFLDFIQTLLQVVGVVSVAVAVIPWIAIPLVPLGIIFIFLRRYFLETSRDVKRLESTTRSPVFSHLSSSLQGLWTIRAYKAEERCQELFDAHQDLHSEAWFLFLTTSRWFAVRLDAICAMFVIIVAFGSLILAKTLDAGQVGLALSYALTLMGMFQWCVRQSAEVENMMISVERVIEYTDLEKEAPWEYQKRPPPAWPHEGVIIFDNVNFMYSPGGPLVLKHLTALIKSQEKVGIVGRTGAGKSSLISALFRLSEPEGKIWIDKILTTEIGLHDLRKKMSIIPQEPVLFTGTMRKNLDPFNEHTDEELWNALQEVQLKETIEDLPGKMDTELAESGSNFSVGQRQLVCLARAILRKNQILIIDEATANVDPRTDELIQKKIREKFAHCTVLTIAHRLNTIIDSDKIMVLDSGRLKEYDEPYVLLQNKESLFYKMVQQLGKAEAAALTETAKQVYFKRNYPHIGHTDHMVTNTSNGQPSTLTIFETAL
- measurement.notes: Inhibition of human MRP4 overexpressed in Sf9 cell membrane vesicles assessed as uptake of [3H]-estradiol-17beta-D-glucuronide in presence of ATP and GSH measured after 20 mins by membrane vesicle transport assay
measured.parameter: IC50

Entry Clc1ccc2c(c1)CCc1cccnc1C2=C1CCNCC1 — recorded IC50 = > 133 µM

Entry C=CCN1C[C@H](C(=O)N(CCCN(C)C)C(=O)NCC)C[C@@H]2c3cccc4[nH]cc(c34)C[C@H]21 — recorded IC50 = > 133 µM

Entry CC(=O)CCCCn1c(=O)c2c(ncn2C)n(C)c1=O — recorded IC50 = > 133 µM

Entry C[C@H]1C[C@H]2[C@@H]3CCC4=CC(=O)C=C[C@]4(C)[C@@]3(F)[C@@H](O)C[C@]2(C)[C@@]1(O)C(=O)CO — recorded IC50 = > 133 µM

Entry Cc1cc2c(cc1CC(=O)c1sccc1S(=O)(=O)Nc1onc(C)c1Cl)OCO2 — recorded IC50 = 28.4 µM
